assayedSystem: human TYK2 (Homo sapiens)
Construct: catalytic domain (amino acids 871-1187; catalog number 08-147); purchased Carna Biosciences 08-147
Sequence (P29597 871-1187): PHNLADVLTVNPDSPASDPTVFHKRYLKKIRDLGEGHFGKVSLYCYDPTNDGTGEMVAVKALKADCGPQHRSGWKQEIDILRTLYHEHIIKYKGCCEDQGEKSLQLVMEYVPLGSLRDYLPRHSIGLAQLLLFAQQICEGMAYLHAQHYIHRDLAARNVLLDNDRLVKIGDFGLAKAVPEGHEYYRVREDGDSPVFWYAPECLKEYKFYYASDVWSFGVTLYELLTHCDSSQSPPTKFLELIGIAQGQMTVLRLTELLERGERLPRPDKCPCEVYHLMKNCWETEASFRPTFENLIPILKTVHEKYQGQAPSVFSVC
assayText: TYK2 inhibition assay
Type: biochemical
experimentalConditions: recombinant human TYK2 catalytic domain, polyGT substrate
pIC50: −log10 of the molar value.
# maps each entry to its pIC50

Reference set (2 entries):
>  <compound>
CCc1cc(-c2ccc(C#N)s2)ncc1N(C)c1cc2c(cn1)ncn2C

>  <pIC50>
7.00 to 11.00

$$$$
>  <compound>
CCc1cc(C(C#N)N2CC[C@@H](OC)C2)ccc1N(C)c1cc2c(cn1)ncn2C (some centres unmarked)

>  <pIC50>
7.00 to 11.00

$$$$

Query block: Consider the compound shown here: Cc1cc(OCc2cccnc2)ccc1N(C)c1cc2c(cn1)ncn2C What is its recorded pIC50?
Result block: < 6.00

Query block: Likewise for CCc1cc(CN(C)S(=O)(=O)CC)ccc1N(C)c1cc2c(cn1)ncn2C ?
Result block: 7.00 to 11.00

Query block: Likewise for Cc1ccc(OCc2ccc(Cl)cc2)cc1N(C)c1cc2c(cn1)ncn2C ?
Result block: < 6.00

---

# maps each entry to its IC50
Test system: pSTAT1(2)-luciferase reporter in HeLa cells triggered with human OSM
assayText: JAK-STAT signalling assay
Assay type: cell-based
experimentalConditions: Homo sapiens, HeLa, HeLa cells, pSTAT1(2)-luciferase reporter, human OSM 33 ng/mL; read-out: JAK-STAT IC50

Reference set (5 entries):
>  <compound>
CCc1cc(C2=CCN(S(=O)(=O)CC(F)(F)F)CC2)ccc1N(C)c1cc2c(cn1)ncn2C [Compound 232]

>  <IC50>
> 1000 nM

$$$$
>  <compound>
CCc1cc(CNS(=O)(=O)C(F)F)cc(F)c1N(C)c1cc2c(cn1)ncn2C [Compound 324]

>  <IC50>
1 to 500 nM

$$$$
>  <compound>
CCc1cc(C(=O)NCC#N)ccc1N(C)c1cc2c(cn1)ncn2C [Compound 120]

>  <IC50>
> 1000 nM

$$$$
>  <compound>
Cc1ccc(OCC(C)C)cc1N(C)c1cc2c(cn1)ncn2C [Compound 63]

>  <IC50>
> 1000 nM

$$$$
>  <compound>
CCc1cc(-c2cnn(Cc3ccc(F)cc3)c2)ccc1N(C)c1cc2c(cn1)ncn2C [Compound 238]

>  <IC50>
1 to 500 nM

$$$$

Query block: Consider the compound shown here: CCc1cc(C(C)(C)O)ccc1N(C)c1cc2c(cn1)ncn2C [Compound 103] What is its recorded IC50?
Result block: > 1000 nM

Query block: Likewise for CCc1cc(-c2cnn(Cc3ccc(Cl)cc3)c2)ccc1N(C)c1cc2c(cn1)ncn2C [Compound 239] ?
Result block: 1 to 500 nM

Query block: Likewise for CCc1cc(C(C)O)ccc1N(C)c1cc2c(cn1)ncn2C (centres unmarked) [Compound 101] ?
Result block: 1 to 500 nM

Query block: Likewise for CCc1cc(CNC(=O)OC(C)(C)C)ccc1N(C)c1cc2c(cn1)ncn2C [Compound 252] ?
Result block: > 1000 nM

Query block: Likewise for CCc1ccc(C#N)cc1N(C)c1cc2c(cn1)ncn2C [Compound 83] ?
Result block: > 1000 nM

Query block: Likewise for CCc1cc(-c2cnn(Cc3cccc(OC)c3)c2)ccc1N(C)c1cc2c(cn1)ncn2C [Compound 236] ?
Result block: 1 to 500 nM

Query block: Likewise for CCc1cc(-c2ccc(O)nc2)ccc1N(C)c1cc2c(cn1)ncn2C [Compound 132] ?
Result block: 501 to 1000 nM

Query block: Likewise for CCc1cc(CNS(=O)(=O)CC(F)(F)F)ccc1N(C)c1cc2c(cn1)ncn2C [Compound 244] ?
Result block: 1 to 500 nM

Query block: Likewise for CCc1cc(CNCC#N)ccc1N(C)c1cc2c(cn1)ncn2C [Compound 149] ?
Result block: > 1000 nM

Query block: Likewise for CCc1cc(-c2cnn(Cc3ccccc3)c2)ccc1N(C)c1cc2c(cn1)ncn2C [Compound 139] ?
Result block: 501 to 1000 nM

Query block: Likewise for CCc1cc(CNS(=O)(=O)N2CCCCC2)ccc1N(C)c1cc2c(cn1)ncn2C [Compound 243] ?
Result block: 1 to 500 nM

---

# maps each entry to its pIC50
assayedSystem: human JAK2 (Homo sapiens)
Construct: catalytic domain (amino acids 808-1132; catalog number PV4210); GST
Sequence (O60674 808-1132): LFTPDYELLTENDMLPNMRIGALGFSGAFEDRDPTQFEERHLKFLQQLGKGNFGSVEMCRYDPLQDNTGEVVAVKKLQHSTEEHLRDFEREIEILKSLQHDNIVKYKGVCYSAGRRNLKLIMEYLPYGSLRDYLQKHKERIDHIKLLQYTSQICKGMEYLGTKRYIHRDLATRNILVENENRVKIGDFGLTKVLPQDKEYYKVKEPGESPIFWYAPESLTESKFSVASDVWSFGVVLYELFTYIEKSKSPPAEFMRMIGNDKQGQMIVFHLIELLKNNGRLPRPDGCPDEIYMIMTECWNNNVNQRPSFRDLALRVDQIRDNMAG
assayText: JAK2 inhibition assay (polyGT substrate / Ulight-JAK1 peptide)
experimentalConditions: recombinant human JAK2 catalytic domain; polyGT or Ulight-JAK1 peptide assay
pIC50: −log10 of the molar value.

>  <compound>
CCc1cc(N2CC(C(=O)NC)C2)ncc1N(C)c1cc2c(cn1)ncn2C [Compound 400]

>  <pIC50>
6.00 to 6.30

$$$$
>  <compound>
CCc1cc(C(=O)N2CCC(N(C)C)C2)ccc1N(C)c1cc2c(cn1)ncn2C (centres unmarked) [Compound 106]

>  <pIC50>
< 6.00

$$$$
>  <compound>
CCc1ccc(C(=O)NC(C)(C)C)cc1N(C)c1cc2c(cn1)ncn2C [Compound 123]

>  <pIC50>
< 6.00

$$$$
>  <compound>
CCc1cc(C(C#N)N2CCC[C@@H]2COC)ccc1N(C)c1cc2c(cn1)ncn2C (some centres unmarked) [Compound 439]

>  <pIC50>
6.30 to 7.00

$$$$
>  <compound>
CCc1cc(C2(C#N)CN(S(C)(=O)=O)C2)ncc1N(C)c1cc2c(cn1)ncn2C [Compound 458]

>  <pIC50>
6.30 to 7.00

$$$$

Query block: # value lookup — system human JAK2 (Homo sapiens), readout pIC50, item CCc1cc(CN2CC(C#N)C2)ccc1N(C)c1cc2c(cn1)ncn2C [Compound 381]
Result block: 6.30 to 7.00

Query block: Likewise for CCc1cc(N2CC(F)(F)C2)ncc1N(C)c1cc2c(cn1)ncn2C [Compound 413] ?
Result block: 7.00 to 11.00

---

# maps each entry to its IC50
System: pSTAT1(2)-luciferase reporter in HeLa cells triggered with human OSM
assayText: JAK-STAT signalling assay
Type: cell-based
experimentalConditions: Homo sapiens, HeLa, HeLa cells, pSTAT1(2)-luciferase reporter, human OSM 33 ng/mL; read-out: JAK-STAT IC50

Reference set (2 entries):
>  <smilesCode>
Cc1cc(-c2cncnc2)ccc1N(C)c1cc2c(cn1)ncn2C

>  <IC50>
> 1000 nM

$$$$
>  <smilesCode>
COC(=O)NCc1ccc(N(C)c2cc3c(cn2)ncn3C)c(F)c1

>  <IC50>
> 1000 nM

$$$$

Query block: # value lookup — system pSTAT1(2)-luciferase reporter in HeLa cells triggered with human OSM, readout IC50, item CCc1cc(C2=CCN(C(=O)NC3(C)CC3)CC2)ccc1N(C)c1cc2c(cn1)ncn2C
Result block: 1 to 500 nM

---

assayedSystem: human JAK3 (Homo sapiens)
Construct: catalytic domain (amino acids 781-1124; catalog number PV3855); purchased Invitrogen PV3855
Sequence (P52333 781-1124): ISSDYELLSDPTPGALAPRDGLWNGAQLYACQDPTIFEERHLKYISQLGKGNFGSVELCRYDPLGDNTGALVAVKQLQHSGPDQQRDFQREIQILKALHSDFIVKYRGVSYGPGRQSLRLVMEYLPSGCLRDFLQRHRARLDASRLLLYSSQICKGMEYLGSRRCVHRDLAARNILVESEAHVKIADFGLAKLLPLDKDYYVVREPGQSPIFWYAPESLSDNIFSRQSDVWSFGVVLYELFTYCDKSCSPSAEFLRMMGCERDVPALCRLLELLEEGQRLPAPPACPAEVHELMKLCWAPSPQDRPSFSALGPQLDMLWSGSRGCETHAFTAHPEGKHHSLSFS
assayText: JAK3 inhibition assay
Assay type: biochemical
experimentalConditions: recombinant human JAK3 catalytic domain; polyGT substrate
pIC50: −log10 of the molar value.
endpointLabel: pIC50

Reference set (5 entries):
>  <molecule>
CCc1cc(-c2ccc(CN)s2)ncc1N(C)c1cc2c(cn1)ncn2C [Compound 303]

>  <pIC50>
< 6.00

$$$$
>  <molecule>
CCc1cc(CNC(=O)OC)ccc1N(C)c1cc2c(cn1)ncn2C [Compound 191]

>  <pIC50>
6.30 to 7.00

$$$$
>  <molecule>
CCOC(=O)C1CN(C(C#N)c2ccc(N(C)c3cc4c(cn3)ncn4C)c(CC)c2)C1 (stereo not drawn) [Compound 453]

>  <pIC50>
6.00 to 6.30

$$$$
>  <molecule>
CCc1cc(C2CN(S(=O)(=O)CCOC)C2)ccc1N(C)c1cc2c(cn1)ncn2C [Compound 349]

>  <pIC50>
6.30 to 7.00

$$$$
>  <molecule>
CCc1cc(CN2CCN(C)CC2)ccc1N(C)c1cc2c(cn1)ncn2C [Compound 141]

>  <pIC50>
< 6.00

$$$$

Query block: Consider the molecule shown here: CCc1cc(-c2ccc(C#N)s2)ncc1N(C)c1cc2c(cn1)ncn2C [Compound 301] What is its recorded pIC50?
Result block: 7.00 to 11.00

Query block: Likewise for CCc1cc(COC)ccc1N(C)c1cc2c(cn1)ncn2C [Compound 105] ?
Result block: 6.30 to 7.00

Query block: Likewise for CCc1cc(CNS(N)(=O)=O)ccc1N(C)c1cc2c(cn1)ncn2C [Compound 423] ?
Result block: 7.00 to 11.00

---

assayedSystem: human JAK3 (Homo sapiens)
Construct: catalytic domain (amino acids 781-1124; catalog number PV3855)
assayText: JAK3 inhibition assay
experimentalConditions: recombinant human JAK3 catalytic domain; polyGT substrate
endpointLabel: IC50

Reference set (3 entries):
>  <compound>
CCc1ccccc1N(CCN1CCOCC1)c1cc2c(cn1)ncn2C [Compound 460]

>  <IC50>
> 1000 nM

$$$$
>  <compound>
CCc1cc(CNS(=O)(=O)N2CCCCC2)ccc1N(C)c1cc2c(cn1)ncn2C [Compound 243]

>  <IC50>
101 to 500 nM

$$$$
>  <compound>
CCc1cc(C2(CCNS(=O)(=O)C(F)F)COC2)ccc1N(C)c1cc2c(cn1)ncn2C [Compound 397]

>  <IC50>
0.01 to 100 nM

$$$$

Query block: Consider the compound shown here: CCc1cc(CN2CCCS2(=O)=O)ccc1N(C)c1cc2c(cn1)ncn2C [Compound 262] What is its recorded IC50?
Result block: 101 to 500 nM

Query block: Likewise for CCc1cc(C2=CCN(C(=O)[C@@H](C)O)CC2)ccc1N(C)c1cc2c(cn1)ncn2C [Compound 248] ?
Result block: 0.01 to 100 nM

Query block: Likewise for CCc1cc(C(C#N)N2CCN(C(C)=O)CC2)ccc1N(C)c1cc2c(cn1)ncn2C (stereo not shown) [Compound 396] ?
Result block: 0.01 to 100 nM

Query block: Likewise for CCc1cc(CN(CC#N)S(C)(=O)=O)cc(F)c1N(C)c1cc2c(cn1)ncn2C [Compound 357] ?
Result block: 0.01 to 100 nM
